biological target: tyrosyl-DNA phosphodiesterase 1 (Tdp1) (Homo sapiens, UniProt Q9NUW8 1-608); test: fluorescence anisotropy
Sequence (Q9NUW8 whole entry): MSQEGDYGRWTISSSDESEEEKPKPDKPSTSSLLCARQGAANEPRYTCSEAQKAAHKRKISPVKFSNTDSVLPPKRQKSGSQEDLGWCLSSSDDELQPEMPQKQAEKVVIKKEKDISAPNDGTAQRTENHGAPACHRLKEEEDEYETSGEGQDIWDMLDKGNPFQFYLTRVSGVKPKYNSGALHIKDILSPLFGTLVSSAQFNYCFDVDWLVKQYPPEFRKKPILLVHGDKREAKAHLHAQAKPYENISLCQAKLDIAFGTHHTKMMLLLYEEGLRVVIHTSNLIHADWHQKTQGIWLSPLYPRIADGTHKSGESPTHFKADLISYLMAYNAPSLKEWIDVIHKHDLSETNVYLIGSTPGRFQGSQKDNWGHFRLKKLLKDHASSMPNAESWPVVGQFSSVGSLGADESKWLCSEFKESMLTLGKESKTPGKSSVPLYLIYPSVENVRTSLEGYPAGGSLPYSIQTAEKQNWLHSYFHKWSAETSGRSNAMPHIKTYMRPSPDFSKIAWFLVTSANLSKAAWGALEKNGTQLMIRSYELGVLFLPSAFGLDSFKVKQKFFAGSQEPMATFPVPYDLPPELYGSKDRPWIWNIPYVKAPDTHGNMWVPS
experimental readout: Kd (nM)
# unit: nM | format: bare number

Worked set:
GATCTAAAAGACTT (ssDNA, 5'-6-FAM via phosphodiester; 3'-phosphate) [F14p]    34.1
GATCTAAAAGACTTG (ssDNA, 3'-6-FAM via phosphorothioate (non-hydrolyzable)) [15(pS)F]    2.4
GATCTAAAAGACTTG (ssDNA, 5'-6-FAM via phosphorothioate; 3'-OH) [F(pS)15]    26.3

Note: attention shifts to another entry.
Please report the measured Kd for GATCTAAAAGACTTG (ssDNA, 5'-6-FAM via phosphodiester; 3'-OH) [F15] 39.2
